Consider the following molecules; for each one, report its inhibition at 1 µM.
- TARGET_UNDER_TEST: AChE (Rattus norvegicus, UniProt P37136)
- Construct: from tissue; host or cells: frontal cortex of male Wistar rats (crude homogenate)
- Sequence (P37136 32-614): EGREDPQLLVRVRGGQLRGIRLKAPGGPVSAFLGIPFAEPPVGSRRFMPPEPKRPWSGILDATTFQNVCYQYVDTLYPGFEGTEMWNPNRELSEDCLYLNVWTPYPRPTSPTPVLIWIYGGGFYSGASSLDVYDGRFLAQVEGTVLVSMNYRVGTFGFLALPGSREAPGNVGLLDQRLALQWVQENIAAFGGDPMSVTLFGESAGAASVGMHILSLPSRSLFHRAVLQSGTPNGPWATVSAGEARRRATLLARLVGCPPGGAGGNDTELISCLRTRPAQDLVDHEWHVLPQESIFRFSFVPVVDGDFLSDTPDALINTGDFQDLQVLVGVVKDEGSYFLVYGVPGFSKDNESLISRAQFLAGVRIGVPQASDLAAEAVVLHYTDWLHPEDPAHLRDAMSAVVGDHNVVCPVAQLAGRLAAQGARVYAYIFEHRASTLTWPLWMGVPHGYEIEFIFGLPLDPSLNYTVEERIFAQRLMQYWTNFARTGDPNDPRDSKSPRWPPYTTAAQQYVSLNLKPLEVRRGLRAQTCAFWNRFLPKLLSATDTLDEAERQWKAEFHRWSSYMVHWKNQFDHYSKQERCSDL
- PROCEDURE_TEXT: AChE inhibition by Ellman's method (rat frontal cortex homogenate)
- Type: biochemical
- MEASUREMENT_SETUP: at 10^−6 M, Ellman's method
- Procedure: Frontal cortex tissue obtained from male Wistar rats was homogenized in 39 volumes of 75 mM sodium phosphate buffer (pH 7.4). A mixture of 260 μL containing the compounds assessed, acetylthiocholine iodide and 5 μL tissue homogenate was incubated for 8 min. […] The extent of the color production was measured spectrophotometrically at 405 nm using Multiskan Ex (Thermo Electron Corporation). […] Results are expressed as the mean ± SD and each experiment was repeated three times.
One number for each entry, in %.

Sample answers from the record:
C#CC[Se]C(=O)c1sccc1Cl [Compound 10b]: 24.4
C=CC[Se]C(=O)Cc1c(C)n(C(=O)c2ccc(Cl)cc2)c2ccc(OC)cc12 [Compound 17a]: 19.2
C=CC[Se]C(=O)C12CC3CC(CC(C3)C1)C2 [Compound 1a, Se-allyl adamantane-1-carboselenoate]: 19.3

Next molecule, inhibition at 1 µM to be filled in.
Reported inhibition at 1 µM, molecule C#CC[Se]C(=O)[C@@H](C)c1ccc2cc(OC)ccc2c1 [Compound 16b] : ____
16.2
